Molecular target: T1, human SLC34A2 (human, UniProt O95436 1-690)
T1 construct: whole, on cells; also called human solute carrier 34 A2; NaPi2b
T1 sequence (looked up): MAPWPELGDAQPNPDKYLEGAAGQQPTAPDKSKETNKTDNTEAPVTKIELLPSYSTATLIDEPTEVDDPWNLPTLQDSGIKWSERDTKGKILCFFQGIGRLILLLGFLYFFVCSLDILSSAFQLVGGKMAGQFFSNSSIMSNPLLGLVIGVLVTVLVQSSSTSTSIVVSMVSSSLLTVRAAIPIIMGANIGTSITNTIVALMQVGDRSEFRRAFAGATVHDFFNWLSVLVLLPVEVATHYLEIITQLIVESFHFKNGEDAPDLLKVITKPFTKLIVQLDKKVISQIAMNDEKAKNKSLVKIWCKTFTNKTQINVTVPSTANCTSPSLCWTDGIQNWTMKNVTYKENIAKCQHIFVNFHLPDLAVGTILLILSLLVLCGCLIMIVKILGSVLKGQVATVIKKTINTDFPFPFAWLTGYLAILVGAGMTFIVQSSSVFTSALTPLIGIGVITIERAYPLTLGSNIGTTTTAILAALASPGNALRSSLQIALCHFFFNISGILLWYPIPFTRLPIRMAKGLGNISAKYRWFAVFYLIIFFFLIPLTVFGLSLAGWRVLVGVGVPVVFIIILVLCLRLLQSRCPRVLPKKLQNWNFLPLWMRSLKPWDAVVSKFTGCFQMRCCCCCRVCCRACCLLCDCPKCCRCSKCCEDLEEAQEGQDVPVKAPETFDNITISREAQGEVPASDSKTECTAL
Assay: FACS, RMG-1 cells
# if measured Top < 10000 MFI: condition met  # else: condition not met

{"columns": ["binder", "category-label"],
 "data": [
  ["30H9B8F9.p1.z9 hIgG1 (antibody, V domains shown, humanized hIgG1) VH: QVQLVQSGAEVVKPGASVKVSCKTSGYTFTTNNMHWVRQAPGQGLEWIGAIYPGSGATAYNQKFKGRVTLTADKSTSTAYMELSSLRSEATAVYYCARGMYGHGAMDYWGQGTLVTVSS VL: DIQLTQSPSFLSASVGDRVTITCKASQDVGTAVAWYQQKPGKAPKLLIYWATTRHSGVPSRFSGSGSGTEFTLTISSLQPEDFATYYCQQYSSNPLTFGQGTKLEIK", "condition not met"],
  ["63A11D5B4.p1.z9 hIgG1 (antibody, V domains shown, humanized hIgG1) VH: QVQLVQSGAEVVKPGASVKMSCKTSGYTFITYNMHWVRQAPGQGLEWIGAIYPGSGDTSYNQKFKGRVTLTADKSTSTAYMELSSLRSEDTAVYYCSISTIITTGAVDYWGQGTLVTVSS VL: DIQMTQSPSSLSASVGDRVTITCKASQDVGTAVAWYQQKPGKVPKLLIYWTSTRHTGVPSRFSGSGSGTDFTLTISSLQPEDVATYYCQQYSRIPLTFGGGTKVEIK", "condition not met"],
  ["xi30H9B8F9 hIgG1 (antibody, V domains shown, chimeric, hIgG1) VH: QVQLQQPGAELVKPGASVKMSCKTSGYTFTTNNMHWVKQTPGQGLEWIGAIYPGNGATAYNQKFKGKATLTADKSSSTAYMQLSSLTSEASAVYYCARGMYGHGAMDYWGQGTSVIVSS VL: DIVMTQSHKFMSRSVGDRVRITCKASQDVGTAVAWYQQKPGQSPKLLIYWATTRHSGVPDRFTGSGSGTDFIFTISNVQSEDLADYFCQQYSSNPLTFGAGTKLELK", "condition not met"],
  ["91C9F1.p1.z10 hIgG1 (antibody, V domains shown, humanized hIgG1) VH: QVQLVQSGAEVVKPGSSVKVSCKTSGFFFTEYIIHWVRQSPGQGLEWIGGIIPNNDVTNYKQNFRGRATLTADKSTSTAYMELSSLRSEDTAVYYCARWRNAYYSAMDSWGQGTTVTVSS VL: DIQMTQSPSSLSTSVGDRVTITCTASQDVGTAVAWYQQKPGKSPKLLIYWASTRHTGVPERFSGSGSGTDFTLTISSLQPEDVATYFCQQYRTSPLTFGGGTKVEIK", "condition met"],
  ["30H9B8F9 VH_P1/VL hIgG1 (antibody, V domains shown, PTM-derisked chimeric, hIgG1; that P1 is the N=>S version follows from the humanized .p1 chains; also called 30H9B8F9.p1 hIgG1) VH: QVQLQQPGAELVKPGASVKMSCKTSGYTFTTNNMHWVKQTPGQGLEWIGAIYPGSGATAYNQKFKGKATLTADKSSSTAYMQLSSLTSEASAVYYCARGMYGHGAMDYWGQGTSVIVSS VL: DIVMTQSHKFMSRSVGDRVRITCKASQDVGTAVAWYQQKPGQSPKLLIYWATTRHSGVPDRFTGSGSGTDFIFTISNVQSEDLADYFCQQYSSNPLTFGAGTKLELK", "condition not met"],
  ["62G10E4G8.p3.z15 hIgG1 (antibody, V domains shown, humanized hIgG1) VH: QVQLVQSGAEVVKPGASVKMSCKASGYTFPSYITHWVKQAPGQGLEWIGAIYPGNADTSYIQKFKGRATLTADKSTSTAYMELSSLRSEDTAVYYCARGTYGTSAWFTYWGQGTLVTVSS VL: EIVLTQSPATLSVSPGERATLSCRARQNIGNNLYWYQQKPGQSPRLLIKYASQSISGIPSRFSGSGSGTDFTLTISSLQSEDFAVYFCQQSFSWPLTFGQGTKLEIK", "condition not met"],
  ["62G10E4G8.p3.z8 hIgG1 (antibody, V domains shown, humanized hIgG1) VH: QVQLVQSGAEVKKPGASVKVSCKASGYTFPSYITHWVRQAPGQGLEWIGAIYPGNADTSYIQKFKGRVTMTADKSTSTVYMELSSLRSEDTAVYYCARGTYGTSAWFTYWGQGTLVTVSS VL: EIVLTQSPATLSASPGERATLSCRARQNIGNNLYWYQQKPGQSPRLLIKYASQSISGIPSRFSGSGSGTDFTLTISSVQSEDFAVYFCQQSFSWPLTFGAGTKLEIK", "condition not met"],
  ["91C9F1.p1.z6 hIgG1 (antibody, V domains shown, humanized hIgG1) VH: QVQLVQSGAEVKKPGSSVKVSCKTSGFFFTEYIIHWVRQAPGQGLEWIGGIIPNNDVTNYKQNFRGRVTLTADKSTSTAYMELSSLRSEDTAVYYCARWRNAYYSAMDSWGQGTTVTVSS VL: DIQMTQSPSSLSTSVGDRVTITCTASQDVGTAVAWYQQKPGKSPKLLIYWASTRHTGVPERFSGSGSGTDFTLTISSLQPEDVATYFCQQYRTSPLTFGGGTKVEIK", "condition met"]
]}
